Recorded values, source patent US6323185.

Measurement target: HIV-1 integrase wild-type (IN1-288) (HIV-1, UniProt P12497 P12497:1148-1435)
Assay explanation: inhibition; first activity column (headed strand transfer); other column 0.156
Test parameters: G4
Measure: IC50 (µM)
Number only, in µM; omit the unit.

Task item: Determine from records and report IC50 for GTGGTTGGTGGGTGGGT (ssDNA, PS at first and last linkages) [T30679]
Reply: 0.159
